# Test system: Es-2
# ASSAY_INFO: Primary qHTS to identify gynecologic anti-cancer compounds using libraries of approved drugs and bioactive compounds (AID 1345084); also: nearly all actives have a fitted effect of over 55% in size
# CONDITION_NOTES: Gynecologic cancer cell panel viability, ATPlite luminescence, 48 h; series mostly up to 57.5 µM
Results filed as inconclusive are left out. Active and inactive are the calls of the source. Calls follow the shape of the dose curve; as a rule, active = well fitted cell-killing curve with a large enough effect; inconclusive = small, poorly fitted or top-dose-only effect, or effect the other way; inactive = flat fitted curve, though single readings scatter.
Labels: true (1) for active, false (0) for inactive

MOLECULE: CC[N+]1(C/C2=C/CCCCCC2)CCC(NC(=O)C2c3cc(Cl)ccc3Oc3ccc(Cl)cc32)CC1 (centres undefined)
CLASS: false (0)
--
MOLECULE: C/C=C(\C)C(=O)O[C@@H]1[C@@H](C)[C@]2(O)[C@@H]3C=C(C)C(=O)[C@H]3CC(CO)=C[C@H]2C2C(C)(C)[C@@]21OC(=O)C(C)CC (some centres undefined)
CLASS: true (1)
--
MOLECULE: COc1cc2c(cc1OC)CN(C(=O)/C=C/c1c(-c3ccccc3)n(C)c3ncccc13)CC2
CLASS: false (0)
--
MOLECULE: C=C(C(=O)O)[C@@H]1CC=C(CCC(C)=O)[C@@H](C)CC1
CLASS: false (0)
